Assay: inhibition of 3D7 malaria parasite growth – strain 3D7 (AID 2306);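 further: 0% = DMSO wells and 100% = chloroquine plus artemisinin control wells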
Conditions: P. falciparum 3D7 erythrocytic growth, LDH absorbance, 72 h; at 2 µM; active compounds read high
property.measured: growth inhibition (%)

>>> test_result("C=CCOc1ccc(C2C(C(=O)OC)=C(C)NC3=C2C(=O)c2ccccc23)cc1OC (centres undefined)")
82
>>> test_result("CCCCNC(=O)c1[nH]c2c(NC(=O)COc3ccccc3)cccc2c1-c1cccc(NC(=O)C(N)CO)c1 (centres undefined)")
87
>>> test_result("CN(C)CCNc1ncnc2c1[nH]c1ccc(Br)cc12")
100
>>> test_result("COc1ccc(Br)cc1/C=C/C(=O)Nc1cccc(C2CCN(C)CC2)c1")
95
>>> test_result("CCc1nc2c(cnn2CC)c(NC2CCOCC2)c1CNC(=O)N1CCOCC1")
98
>>> test_result("O=C(NC1CCCC1)c1ccc(N2CCC(NCc3cc4cc(Cl)ccc4[nH]3)CC2)cc1")
91
>>> test_result("Cc1cc(F)ccc1Oc1nc(Nc2ccc(N3CCOCC3)c(F)c2)nc2c1S(=O)(=O)CCC2")
96
>>> test_result("Nc1cccc(CNCc2ccc(-c3ccc(-c4nc5ccc(C(F)(F)F)cc5[nH]4)s3)cc2)c1")
102
>>> test_result("O=C(Nc1ccc(I)cc1)Nc1ccc(Cn2ncc(N3CCCNCC3)c(Cl)c2=O)cc1")
86
